B1: VH:VL chains; a variant is named by its letters at X, in order (parent)
chain 1: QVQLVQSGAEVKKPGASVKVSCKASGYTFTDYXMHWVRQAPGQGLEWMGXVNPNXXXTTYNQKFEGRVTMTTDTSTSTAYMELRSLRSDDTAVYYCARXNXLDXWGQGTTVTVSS
chain 2: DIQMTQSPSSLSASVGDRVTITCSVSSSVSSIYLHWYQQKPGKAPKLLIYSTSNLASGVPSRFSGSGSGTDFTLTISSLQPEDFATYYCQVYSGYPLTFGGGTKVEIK

Variants of: B1
Experiment: yeast display scFab, FACS + sequencing
Settings: with MET
This is one part of the list. How many sequences the whole screen found active is unknown.

[
  {
    "mutationList": "VRKGGSVY",
    "antigen binding call": "no binding"
  },
  {
    "mutationList": "VTGTGDVV",
    "antigen binding call": "no binding"
  },
  {
    "mutationList": "FKAEAFSF",
    "antigen binding call": "no binding"
  },
  {
    "mutationList": "YTKGTSVA chain 1 E65K",
    "antigen binding call": "no binding"
  },
  {
    "mutationList": "FERTSALF",
    "antigen binding call": "no binding"
  },
  {
    "mutationList": "YKGGGYGA",
    "antigen binding call": "binds"
  },
  {
    "mutationList": "VKETSVLF",
    "antigen binding call": "no binding"
  },
  {
    "mutationList": "VKGGGYGA",
    "antigen binding call": "no binding"
  },
  {
    "mutationList": "VRTEDDAS",
    "antigen binding call": "no binding"
  },
  {
    "mutationList": "VTGTSDLY",
    "antigen binding call": "no binding"
  },
  {
    "mutationList": "YKTRGSAA",
    "antigen binding call": "binds"
  },
  {
    "mutationList": "DKEGGDVV",
    "antigen binding call": "no binding"
  },
  {
    "mutationList": "SGETGDSV",
    "antigen binding call": "no binding"
  },
  {
    "mutationList": "SAAGGASD chain 1 L45S",
    "antigen binding call": "no binding"
  },
  {
    "mutationList": "YRARSSLA",
    "antigen binding call": "binds"
  },
  {
    "mutationList": "DTKAASGV",
    "antigen binding call": "no binding"
  },
  {
    "mutationList": "YRRGSALY",
    "antigen binding call": "binds"
  },
  {
    "mutationList": "VRERGSLY",
    "antigen binding call": "binds"
  },
  {
    "mutationList": "FKRGSSLF",
    "antigen binding call": "binds"
  },
  {
    "mutationList": "YRKESAVY",
    "antigen binding call": "binds"
  },
  {
    "mutationList": "SEARSDGS",
    "antigen binding call": "no binding"
  },
  {
    "mutationList": "VAKRDSAS",
    "antigen binding call": "no binding"
  }
]

Source listed as the emibetuzumab library of Makowski et al. (2022).
